# TEST_TARGET: Syk (356-635 amino acids) catalytic domain (Homo sapiens (Human))
# ASSAY_INFO: Inhibition of enzymatic Syk kinase activity (radiometric)
# Format: biochemical
# MEASUREMENT_CONTEXT: read-out: IC50 Syk
Counter-ions that a name gives are not always drawn.
REPORTED_METRIC: IC50

Let me check: N#CCC1CCN(c2nc(Nc3ccc(N4CCC(CO)CC4)cc3)c3c(=O)[nH]ncc3n2)CC1 [Example 216] , system Syk (356-635 amino acids) catalytic domain (Homo sapiens (Human)), measured IC50 is < 10 nM

Let me check: O=C(O)C[C@H]1CC[C@@H](c2ccc(Nc3nc(N4CCCCCC4)nc4cn[nH]c(=O)c34)cc2)CC1 [Example 123] , system Syk (356-635 amino acids) catalytic domain (Homo sapiens (Human)), measured IC50 is < 10 nM

Let me check: O=c1[nH]ncc2nc(N3CCCCCC3)nc(Nc3ccc(N4CCN(CCCO)CC4)cc3)c12 [Example 260] , system Syk (356-635 amino acids) catalytic domain (Homo sapiens (Human)), measured IC50 is < 50 nM

Let me check: O=C(O)CC1CCN(c2ccc(Nc3nc(C4CCCCCC4)nc4cn[nH]c(=O)c34)cc2)CC1 [Example 90] , system Syk (356-635 amino acids) catalytic domain (Homo sapiens (Human)), measured IC50 is < 100 nM

Let me check: N#CCC1CCN(c2nc(Nc3ccc(-c4nnn(CC(=O)O)n4)cc3)c3c(=O)[nH]ncc3n2)CC1 [Example 241] , system Syk (356-635 amino acids) catalytic domain (Homo sapiens (Human)), measured IC50 is > 100 nM

Let me check: O=C(O)C1CC12CCN(CCOc1ccc(Nc3nc(N4CCCCCC4)nc4cn[nH]c(=O)c34)cc1)CC2 (stereo not drawn) [Example 158] , system Syk (356-635 amino acids) catalytic domain (Homo sapiens (Human)), measured IC50 is < 50 nM

Let me check: O=C(O)C1CC12CCN(c1ccc(Nc3nc(N4CCCNCC4)nc4cn[nH]c(=O)c34)cc1)CC2 (stereo not drawn) [Example 72, hydrochloride] , system Syk (356-635 amino acids) catalytic domain (Homo sapiens (Human)), measured IC50 is < 50 nM

Let me check: N#CCC1CCN(c2nc(Nc3ccc(N4CCN(CCF)CC4)cc3)c3c(=O)[nH]ncc3n2)CC1 [Example 276] , system Syk (356-635 amino acids) catalytic domain (Homo sapiens (Human)), measured IC50 is < 10 nM

Let me check: CC(C)(O)C(=O)N1CCN(c2ccc(Nc3nc(N4CCCCCC4)nc4cn[nH]c(=O)c34)cn2)CC1 [Example 238] , system Syk (356-635 amino acids) catalytic domain (Homo sapiens (Human)), measured IC50 is < 50 nM

Let me check: O=C(O)C1CC12CCN(c1ccc(Nc3nc(N4CCCCCCC4)nc4cn[nH]c(=O)c34)cc1)CC2 (stereo not drawn) [Example 141] , system Syk (356-635 amino acids) catalytic domain (Homo sapiens (Human)), measured IC50 is < 50 nM

Let me check: O=C(O)C1CC12CCN(c1ccc(Nc3nc(-c4ccccc4)nc4cn[nH]c(=O)c34)cc1)CC2 (stereo not drawn) [Example 19] , system Syk (356-635 amino acids) catalytic domain (Homo sapiens (Human)), measured IC50 is < 50 nM

Let me check: N#CCC1CCN(c2nc(Nc3ccc(N4CCC(Cc5nn[nH]n5)CC4)cc3)c3c(=O)[nH]ncc3n2)CC1 [Example 246] , system Syk (356-635 amino acids) catalytic domain (Homo sapiens (Human)), measured IC50 is < 10 nM

Let me check: N#CCC(=O)N1CCN(c2ccc(Nc3nc(N4CCC(CC#N)CC4)nc4cn[nH]c(=O)c34)cc2)CC1 [Example 240] , system Syk (356-635 amino acids) catalytic domain (Homo sapiens (Human)), measured IC50 is < 50 nM

Let me check: N#CC1CCN(c2nc(Nc3ccc(N4CCC5(CC4)CC5C(=O)O)cc3)c3c(=O)[nH]ncc3n2)CC1 (stereo not drawn) [Example 74] , system Syk (356-635 amino acids) catalytic domain (Homo sapiens (Human)), measured IC50 is > 100 nM

Let me check: O=c1[nH]ncc2nc(N3CCCCCC3)nc(Nc3ccc(N4CCC5(CC4)CC5CO)cc3)c12 (stereo not drawn) [Example 258] , system Syk (356-635 amino acids) catalytic domain (Homo sapiens (Human)), measured IC50 is < 100 nM
